# MIC Assay VRE Strains: CSUC-4 van0 listing for each entry below
Tested on: VRE-CSUC4 (vancomycin resistant enterococci)
ASSAY REMARKS: MIC assay, VRE strain CSUC-4
Type: cell-based
EXPERIMENTAL CONDITIONS: No vancomycin - 16 h
OBSERVABLE: MIC Assay VRE Strains: CSUC-4 van0 (µM)

{"COMPOUND": "Cn1cc(NC(=O)CN)cc1C(=O)Nc1cc(C(=O)NC2CCC(CC3CCC(NC(=O)c4cc(NC(=O)c5cc(NC(=O)CN)cn5C)cn4C)CC3)CC2)n(C)c1 (stereo not shown) [Compound 21]", "PREFIX OPERATOR": ">", "MEASURED RESULT": 45.5}
{"COMPOUND": "Cn1cc(NC(=O)c2cc(NC(=O)CN)cn2C)cc1C(=O)NCCCN(CCCNC(=O)c1cc(NC(=O)c2cc(NC(=O)CN)cn2C)cn1C)C(=O)OCc1ccccc1 [Compound 42]", "PREFIX OPERATOR": "=", "MEASURED RESULT": 22.7}
{"COMPOUND": "Cn1cc(NC(=O)c2cc(NC(=O)CN)cn2C)cc1C(=O)NCCCN(CCCNC(=O)c1cc(NC(=O)c2cc(NC(=O)CN)cn2C)cn1C)CCCNC(=O)c1cc(NC(=O)c2cc(NC(=O)CN)cn2C)cn1C [Compound 74]", "PREFIX OPERATOR": "=", "MEASURED RESULT": 22.7}
{"COMPOUND": "Cn1cc(NC(=O)c2cc(NC(=O)CN)cn2C)cc1C(=O)NCCNC(=O)c1cc(NC(=O)c2cc(NC(=O)CN)cn2C)cn1C [Compound 10]", "PREFIX OPERATOR": ">", "MEASURED RESULT": 45.5}

----------
The reader will find reported MIC values listed item by item below.
Test system: VRE-UCD3 (vancomycin resistant enterococci)
ASSAY REMARKS: MIC assay, VRE strain UCD-3
Format: cell-based
EXPERIMENTAL CONDITIONS: Enterococcus, VRE; 25 μg/mL Vancomycin - 24 h; read-out: MIC Assay VRE Strains: UCD-3 van25
OBSERVABLE: MIC (µM)

{"COMPOUND": "CC(C)CCn1cc(NC(=O)CNC(=N)N)cc1C(=O)Nc1ccc(NC(=O)c2cc(NC(=O)CNC(=N)N)cn2CCC(C)C)cc1 [Compound 189a]", "OBSERVABLE": "MIC", "UNIT ABBREV": "µM", "MEASURED RESULT": 11.4}
{"COMPOUND": "CC(C)CCn1cc(NC(=O)CNC(=N)N)cc1C(=O)Nc1ccc2ccc(NC(=O)c3cc(NC(=O)CNC(=N)N)cn3CCC(C)C)cc2c1 [Compound 189b]", "OBSERVABLE": "MIC", "UNIT ABBREV": "µM", "MEASURED RESULT": 5.7}
{"COMPOUND": "CC/N=C(/NCCN(C)C)Nc1cc(C(=O)Nc2ccc(NC(=O)c3cc(N/C(=N/CC)NCCN(C)C)cn3CCC(C)C)cc2)n(CCC(C)C)c1", "OBSERVABLE": "MIC", "UNIT ABBREV": "µM", "MEASURED RESULT": 11.4}

----------
Test system: VRE-CSUC4 (vancomycin resistant enterococci)
ASSAY REMARKS: MIC assay, VRE strain CSUC-4
Type: cell-based
EXPERIMENTAL CONDITIONS: 25 μg/mL Vancomycin - 24 h
OBSERVABLE: MIC Assay VRE Strains: CSUC-4 van25

{"COMPOUND": "Cn1cc(NC(=O)c2cc(NC(=O)c3cc(NC(=O)CN)cn3C)cn2C)cc1C(=O)NCCCN(CCCN)CCCNC(=O)c1cc(NC(=O)c2cc(NC(=O)c3cc(NC(=O)CN)cn3C)cn2C)cn1C [Compound 66]", "MEASURED RESULT": ">45.5 µM"}
{"COMPOUND": "Cn1cc(NC(=O)CN)cc1C(=O)Nc1cc(C(=O)NC2CCC(CC3CCC(NC(=O)c4cc(NC(=O)c5cc(NC(=O)CN)cn5C)cn4C)CC3)CC2)n(C)c1 (stereo not drawn) [Compound 21]", "MEASURED RESULT": ">45.5 µM"}
{"COMPOUND": "Cn1cc(NC(=O)c2cc(NC(=O)CN)cn2C)cc1C(=O)NCCNC(=O)c1cc(NC(=O)c2cc(NC(=O)CN)cn2C)cn1C [Compound 10]", "MEASURED RESULT": ">45.5 µM"}

----------
Tested on: E coli
ASSAY REMARKS: MIC assay, E coli
Assay type: cell-based
Reported MIC Assay E coli values are given for each entry in this list.

{"COMPOUND": "NC(Cc1c[nH]cn1)C(=O)Nc1cc(C(=O)NC2CCC(NC(=O)c3cc(NC(=O)C(N)Cc4c[nH]cn4)cn3CC3CC3)CC2)n(CC2CC2)c1 (stereo not drawn)", "MEASURED TARGET": "E coli", "MIC Assay E coli": ">45.5 µM"}
{"COMPOUND": "CC(C)C(N)C(=O)Nc1cc(C(=O)NCCNC(=O)c2cc(NC(=O)C(N)C(C)C)cn2CC2CC2)n(CC2CC2)c1 (stereo not drawn)", "MEASURED TARGET": "E coli", "MIC Assay E coli": ">45.5 µM"}
{"COMPOUND": "NCCCC(N)C(=O)N1CCCC1C(=O)Nc1cc(C(=O)NC2CCC(NC(=O)c3cc(NC(=O)C4CCCN4C(=O)C(N)CCCN)cn3CC3CC3)CC2)n(CC2CC2)c1 (stereo not drawn)", "MEASURED TARGET": "E coli", "MIC Assay E coli": ">45.5 µM"}

----------
Test system: Streptococcus pneumoniae
ASSAY REMARKS: MIC assay, S. pneumoniae
Type: cell-based
EXPERIMENTAL CONDITIONS: CAMHB + 5% LHB, 24 h
OBSERVABLE: MIC Assay Other Strains: S. pneumoniae

{"COMPOUND": "Cn1cc(NC(=O)c2cc(NC(=O)c3cc(NC(=O)CN)cn3C)cn2C)cc1C(=O)NCCCN(CCCN)CCCNC(=O)c1cc(NC(=O)c2cc(NC(=O)c3cc(NC(=O)CN)cn3C)cn2C)cn1C", "OBSERVABLE": "MIC Assay Other Strains: S. pneumoniae", "MEASURED RESULT": ">45.5 µM"}
{"COMPOUND": "Cn1cc(NC(=O)c2cc(NC(=O)CN)cn2C)cc1C(=O)NCCNC(=O)c1cc(NC(=O)c2cc(NC(=O)CN)cn2C)cn1C", "OBSERVABLE": "MIC Assay Other Strains: S. pneumoniae", "MEASURED RESULT": ">45.5 µM"}
{"COMPOUND": "Cn1cc(NC(=O)CN)cc1C(=O)Nc1cc(C(=O)NC2CCC(CC3CCC(NC(=O)c4cc(NC(=O)c5cc(NC(=O)CN)cn5C)cn4C)CC3)CC2)n(C)c1 (stereo not drawn)", "OBSERVABLE": "MIC Assay Other Strains: S. pneumoniae", "MEASURED RESULT": ">45.5 µM"}
